Test system: PANC-1
Test: SRB colorimetric assay of cell growth and viability, PANC-1
Format: cell-based, human
Conditions: 48 hours exposure
Where a SMILES comes first, the peptide text is derived from it. Bridges are numbered along the chain shown (N, C = ends). [ ]: non-standard residue; d: D form. The star is where a group is joined. d(aIle) = CC[C@H](C)[C@@H](N)C(=O)O; d(aThr) = C[C@@H](O)[C@@H](N)C(=O)O; hCha = N[C@@H](CCC1CCCCC1)C(=O)O; Hexanoyl(5-Me) = CC(C)CCCC(=O)*; Orn = NCCC[C@H](N)C(=O)O; Dhb = C/C=C(\N)C(=O)O
Quick reference: GI50 of the listed items.

Solved entries (count: 3):
Input line: Report GI50 for C/C=C1\NC(=O)[C@H](Cc2ccccc2)NC(=O)[C@@H](C(C)C)NC(=O)[C@@H]([C@@H](C)CC)NC(=O)[C@H](NC(=O)[C@H](NC(=O)[C@H](CCCN)NC(=O)[C@H]2CCCN2C(=O)[C@H](NC(=O)[C@H](CCC2CCCCC2)NC(=O)[C@@H](NC(=O)[C@H](NC(=O)CCCC(C)C)C(C)C)[C@@H](C)O)C(C)C)[C@@H](C)CC)[C@@H](C)OC(=O)[C@H](C(C)C)NC1=O [Compound 9, [hCh^11]-KF] ({Hexanoyl(5-Me)}-[dV]T[hCha][dV][dP][Orn][d(aIle)][d(aThr)][d(aIle)][dV]F[Dhb]V; ester 8-C) tested on PANC-1.
Output line: 2.25 µM

Input line: Moving on to the next compound: C/C=C1\NC(=O)[C@H](Cc2ccccc2)NC(=O)[C@@H](C(C)C)NC(=O)[C@@H]([C@@H](C)CC)NC(=O)[C@H](NC(=O)[C@H](NC(=O)[C@H](CCCN)NC(=O)[C@H]2CCCN2C(=O)[C@H](NC(=O)[C@@H](NC(=O)[C@H](NC(=O)[C@H](NC(=O)CCCC(C)C)C(C)C)[C@H](C)O)C(C)C)C(C)C)[C@@H](C)CC)[C@@H](C)OC(=O)[C@H](C(C)C)NC1=O [Compound 7, [D-Thr^12]-KF]
Output line: ≥ 6.77 µM

Input line: Moving on to the next compound: C/C=C1\NC(=O)[C@H](Cc2ccccc2)NC(=O)[C@@H](C(C)C)NC(=O)[C@@H]([C@@H](C)CC)NC(=O)[C@H](NC(=O)[C@H](NC(=O)[C@H](CCCN)NC(=O)[C@H]2CCCN2C(=O)[C@H](NC(=O)[C@@H](NC(=O)[C@@H](NC(=O)[C@H](NC(=O)CCCNC(=N)N)C(C)C)[C@@H](C)O)C(C)C)C(C)C)[C@@H](C)CC)[C@@H](C)OC(=O)[C@H](C(C)C)NC1=O [Compound 29, [4-GuBut^14]-KF]
Output line: 6.7 µM

Others:
Input line: Report GI50 for C/C=C1\NC(=O)[C@H](Cc2ccccc2)NC(=O)[C@@H](C(C)C)NC(=O)[C@@H]([C@@H](C)CC)NC(=O)[C@H](NC(=O)[C@H](NC(=O)[C@H](CCCN)NC(=O)[C@H]2CCCN2C(=O)[C@H](NC(=O)[C@@H](NC(=O)[C@@H](NC(=O)CNC(=O)CCCC(C)C)[C@@H](C)O)C(C)C)C(C)C)[C@@H](C)CC)[C@@H](C)OC(=O)[C@H](C(C)C)NC1=O [Compound 33, [Gly^13]-KF] tested on PANC-1.
Output line: 0.385 µM

Input line: Moving on to the next compound: C/C=C1\NC(=O)[C@H](Cc2ccccc2)NC(=O)[C@@H](C(C)C)NC(=O)[C@@H]([C@@H](C)CC)NC(=O)[C@H](NC(=O)[C@H](NC(=O)[C@H](CCCN)NC(=O)[C@H]2CCCN2C(=O)[C@H](NC(=O)[C@@H](NC(=O)[C@@H](NC(=O)[C@@H](CC2CCCCC2)NC(=O)CCCC(C)C)[C@@H](C)O)C(C)C)C(C)C)[C@@H](C)CC)[C@@H](C)OC(=O)[C@H](C(C)C)NC1=O [Compound 8, [D-Cha^13]-KF]
Output line: 6.53 µM

----------
System: K-562
Assay: SRB colorimetric assay of cell growth and viability, K-562
Format: cell-based, human
Conditions: 48 hours exposure; read-out: LC50 K-562
Where a SMILES comes first, the peptide text is derived from it. Bridges are numbered along the chain shown (N, C = ends). [ ]: non-standard residue; d: D form. The star is where a group is joined. d(aIle) = CC[C@H](C)[C@@H](N)C(=O)O; d(aThr) = C[C@@H](O)[C@@H](N)C(=O)O; Hexanoyl(5-Me) = CC(C)CCCC(=O)*; Orn = NCCC[C@H](N)C(=O)O; Dhb = C/C=C(\N)C(=O)O
Measurement type: CC50 (µM)
Your answer should be a plain number; it is taken to be in µM.

Input line: Report CC50 for C/C=C1\NC(=O)[C@H](Cc2ccccc2)NC(=O)[C@@H](C(C)C)NC(=O)[C@@H]([C@@H](C)CC)NC(=O)[C@H](NC(=O)[C@H](NC(=O)[C@H](CCCN)NC(=O)[C@H]2CCCN2C(=O)[C@H](NC(=O)[C@@H](NC(=O)[C@@H](NC(=O)[C@H](NC(=O)CCCC(C)C)C(C)C)C(C)C)C(C)C)C(C)C)[C@@H](C)CC)[C@@H](C)OC(=O)[C@H](C(C)C)NC1=O [Compound 6, [Val^12]-KF] ({Hexanoyl(5-Me)}-[dV]VV[dV][dP][Orn][d(aIle)][d(aThr)][d(aIle)][dV]F[Dhb]V; ester 8-C) tested on K-562.
Output line: 3.07

----------
Test system: HeLa
Assay: SRB colorimetric assay of cell growth and viability, HeLa
Format: cell-based, human
Settings: 48 hours exposure; read-out: LC50 HELA
Where a SMILES comes first, the peptide text is derived from it. Bridges are numbered along the chain shown (N, C = ends). [ ]: non-standard residue; d: D form. The star is where a group is joined. d(aIle) = CC[C@H](C)[C@@H](N)C(=O)O; d(aThr) = C[C@@H](O)[C@@H](N)C(=O)O; hCha = N[C@@H](CCC1CCCCC1)C(=O)O; Hexanoyl(5-Me) = CC(C)CCCC(=O)*; Orn = NCCC[C@H](N)C(=O)O; Dhb = C/C=C(\N)C(=O)O
Quick reference: CC50 of the listed items.
Your answer should be a plain number; it is taken to be in µM.

Input line: For the compound shown here, C/C=C1\NC(=O)[C@H](Cc2ccccc2)NC(=O)[C@@H](C(C)C)NC(=O)[C@@H]([C@@H](C)CC)NC(=O)[C@H](NC(=O)[C@H](NC(=O)[C@H](CCCN)NC(=O)[C@H]2CCCN2C(=O)[C@H](NC(=O)[C@@H](NC(=O)[C@@H](NC(=O)[C@@H](CC2CCCCC2)NC(=O)CCCC(C)C)[C@@H](C)O)C(C)C)C(C)C)[C@@H](C)CC)[C@@H](C)OC(=O)[C@H](C(C)C)NC1=O [Compound 8, [D-Cha^13]-KF] , give the reported CC50.
Output line: 3.8

Input line: Moving on to the next compound: C/C=C1\NC(=O)[C@H](Cc2ccccc2)NC(=O)[C@@H](C(C)C)NC(=O)[C@@H]([C@@H](C)CC)NC(=O)[C@H](NC(=O)[C@H](NC(=O)[C@H](CCCN)NC(=O)[C@H]2CCCN2C(=O)[C@H](NC(=O)[C@@H](NC(=O)[C@@H](NC(=O)[C@H](NC(=O)CCCCC(C)=O)C(C)C)[C@@H](C)O)C(C)C)C(C)C)[C@@H](C)CC)[C@@H](C)OC(=O)[C@H](C(C)C)NC1=O [Compound 27, [6-OHep^14]-KF]
Output line: 6.7

Input line: Moving on to the next compound: C/C=C1\NC(=O)[C@H](Cc2ccccc2)NC(=O)[C@@H](C(C)C)NC(=O)[C@@H]([C@@H](C)CC)NC(=O)[C@H](NC(=O)[C@H](NC(=O)[C@H](CCCN)NC(=O)[C@H]2CCCN2C(=O)[C@H](NC(=O)[C@H](CCC2CCCCC2)NC(=O)[C@@H](NC(=O)[C@H](NC(=O)CCCC(C)C)C(C)C)[C@@H](C)O)C(C)C)[C@@H](C)CC)[C@@H](C)OC(=O)[C@H](C(C)C)NC1=O [Compound 9, [hCh^11]-KF] ({Hexanoyl(5-Me)}-[dV]T[hCha][dV][dP][Orn][d(aIle)][d(aThr)][d(aIle)][dV]F[Dhb]V; ester 8-C)
Output line: 2.92

Input line: Moving on to the next compound: C/C=C1\NC(=O)[C@H](Cc2ccccc2)NC(=O)[C@@H](C(C)C)NC(=O)[C@@H]([C@@H](C)CC)NC(=O)[C@H](NC(=O)[C@H](NC(=O)[C@H](CCCN)NC(=O)[C@H]2CCCN2C(=O)[C@H](NC(=O)CNC(=O)[C@@H](NC(=O)[C@H](NC(=O)CCCC(C)C)C(C)C)[C@@H](C)O)C(C)C)[C@@H](C)CC)[C@@H](C)OC(=O)[C@H](C(C)C)NC1=O [Compound 42, [Gly^11]-KF] ({Hexanoyl(5-Me)}-[dV]TG[dV][dP][Orn][d(aIle)][d(aThr)][d(aIle)][dV]F[Dhb]V; ester 8-C)
Output line: 6.96

Input line: Moving on to the next compound: C/C=C1\NC(=O)[C@H](Cc2ccccc2)NC(=O)[C@@H](C(C)C)NC(=O)[C@@H]([C@@H](C)CC)NC(=O)[C@H](NC(=O)[C@H](NC(=O)[C@H](CCCN)NC(=O)[C@H]2CCCN2C(=O)[C@H](NC(=O)[C@@H](NC(=O)CNC(=O)CCCC(C)C)C(C)C)C(C)C)[C@@H](C)CC)[C@@H](C)OC(=O)[C@H](C(C)C)NC1=O [Compound 53, [Gly^12, noD-Val^13]-KF] ({Hexanoyl(5-Me)}-GV[dV][dP][Orn][d(aIle)][d(aThr)][d(aIle)][dV]F[Dhb]V; ester 7-C)
Output line: 7.49
